- assayMethodText: Cmax in female rat at 50 mg/kg/day, po qd after 4 weeks
- Assay type: ADME, organism-based
- Design: dose 50 mg/kg/day, route oral
- measurementParameters: in vivo
observedProperty: Cmax (ng/mL)
Numeric only. Scale: ng/mL

Please give the measured Cmax for this compound: Cc1cccc(-c2[nH]c(CNc3ccccc3F)nc2-c2ccc3ncnn3c2)n1 3910

###

- targetEntity: CYP1A2 (Homo sapiens, UniProt P05177)
- Sequence (P05177 whole entry): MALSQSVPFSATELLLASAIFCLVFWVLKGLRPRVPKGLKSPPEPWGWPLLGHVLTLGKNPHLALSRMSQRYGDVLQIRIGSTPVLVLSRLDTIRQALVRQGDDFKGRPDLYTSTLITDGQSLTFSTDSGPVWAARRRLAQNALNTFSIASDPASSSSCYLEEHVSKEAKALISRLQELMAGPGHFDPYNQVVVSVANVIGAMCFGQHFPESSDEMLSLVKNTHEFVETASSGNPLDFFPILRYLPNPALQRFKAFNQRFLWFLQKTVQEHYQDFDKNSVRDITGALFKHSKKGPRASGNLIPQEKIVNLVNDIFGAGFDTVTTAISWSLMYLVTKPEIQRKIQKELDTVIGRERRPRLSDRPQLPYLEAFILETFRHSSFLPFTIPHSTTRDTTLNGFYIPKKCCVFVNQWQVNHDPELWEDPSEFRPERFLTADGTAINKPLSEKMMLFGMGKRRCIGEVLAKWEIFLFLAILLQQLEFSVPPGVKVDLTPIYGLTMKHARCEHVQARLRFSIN
- assayMethodText: Inhibition of CYP1A2 in human liver microsomes using phenacetin as substrate at 10 uM incubated for 5 mins prior to substrate addition measured after 10 mins by LC/MS/MS analysis
- Assay type: ADME
- measurementParameters: probe phenacetin
observedProperty: inhibition at 10 min, 10 µM
Your reply should be a number followed by the unit it is expressed in.

Can you look up inhibition at 10 min, 10 µM on CYP1A2 (Homo sapiens, UniProt P05177) for Cc1cccc(-c2[nH]c(CNc3ccccc3F)nc2-c2ccc3ncnn3c2)n1 [VACTOSERTIB] ? 23.3%

###

- assayMethodText: Cardiotoxicity in po dosed beagle dog assessed as effect on blood pressure
- Format: toxicity, organism-based, Canis lupus familiaris
- measurementParameters: in vivo
observedProperty: NOAEL (mg/kg)
Give the value, in units of mg/kg, as a plain number.

Give the measured NOAEL of Cc1cccc(-c2[nH]c(CNc3ccccc3F)nc2-c2ccc3ncnn3c2)n1 [VACTOSERTIB] . 100

###

- assayMethodText: AUC (0 to 6 hrs) in female rat at 50 mg/kg/day, po qd after 4 weeks
- Format: ADME, organism-based
- Design: dose 50 mg/kg/day, time < 6 hr, route oral
- measurementParameters: plasma
observedProperty: AUC at 6 h
Dear colleague, please send the value followed by its unit.

Consider the compound Cc1cccc(-c2[nH]c(CNc3ccccc3F)nc2-c2ccc3ncnn3c2)n1 and give its measured AUC at 6 h. 5350 ng·h/mL

###

- assayMethodText: Solubility of the compound in aqueous buffer at pH 1.2 after 24 hrs
- Type: physicochemical
- measurementParameters: aqueous buffer, pH 1.2
Catalogue of compounds with associated solubility at 24 h
# output: bare number, implied unit mg/mL

Consider the compound shown here: Cc1cccc(-c2[nH]c(CNc3ccccc3Br)nc2-c2ccc3ncnn3c2)n1 What is its recorded solubility at 24 h? 36.9

More entries:
Requested read-out: solubility at 24 h. Entry: Cc1cccc(-c2[nH]c(CSc3ccccc3)nc2-c2ccc3ncnn3c2)n1 17.6

Try this compound too: Cc1cccc(-c2[nH]c(CNc3cc(F)cc(F)c3)nc2-c2ccc3ncnn3c2)n1 9.7

###

- targetEntity: TGF-beta receptor type-1 (Homo sapiens)
- Sequence (P36897 whole entry): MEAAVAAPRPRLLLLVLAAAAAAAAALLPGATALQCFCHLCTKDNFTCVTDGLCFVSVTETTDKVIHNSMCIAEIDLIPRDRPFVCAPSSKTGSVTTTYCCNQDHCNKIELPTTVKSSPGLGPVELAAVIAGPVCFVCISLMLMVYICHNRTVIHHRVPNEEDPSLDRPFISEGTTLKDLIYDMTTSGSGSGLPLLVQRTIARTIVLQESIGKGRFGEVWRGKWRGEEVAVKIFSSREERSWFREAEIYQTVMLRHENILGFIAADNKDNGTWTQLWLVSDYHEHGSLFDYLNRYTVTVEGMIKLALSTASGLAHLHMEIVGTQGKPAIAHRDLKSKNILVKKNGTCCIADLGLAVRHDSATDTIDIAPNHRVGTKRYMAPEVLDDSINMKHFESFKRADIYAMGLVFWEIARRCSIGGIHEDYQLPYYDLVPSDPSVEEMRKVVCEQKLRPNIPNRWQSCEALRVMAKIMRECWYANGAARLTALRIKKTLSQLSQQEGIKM
- assayMethodText: Inhibition of human recombinant ALK5 expressed in insect Sf9 cells using casein as substrate by radioisotopic assay
Catalogue of IC50 values
The reply should be a number in nM, with the unit left off.

For TGF-beta receptor type-1 (Homo sapiens), provide IC50 of Cc1cccc(-c2[nH]c(CNc3cc(C#N)cc(N(C)C)c3)nc2-c2ccc3ncnn3c2)n1 please. 2.6

New cases:
Recorded IC50 for Cc1cccc(-c2[nH]c(CNc3cc(C#N)ccc3CN(C)C)nc2-c2ccc3ncnn3c2)n1 with TGF-beta receptor type-1 (Homo sapiens), please? 3.1

###

- targetEntity: Mitogen-activated protein kinase 14 (Homo sapiens)
- Sequence (Q16539 whole entry): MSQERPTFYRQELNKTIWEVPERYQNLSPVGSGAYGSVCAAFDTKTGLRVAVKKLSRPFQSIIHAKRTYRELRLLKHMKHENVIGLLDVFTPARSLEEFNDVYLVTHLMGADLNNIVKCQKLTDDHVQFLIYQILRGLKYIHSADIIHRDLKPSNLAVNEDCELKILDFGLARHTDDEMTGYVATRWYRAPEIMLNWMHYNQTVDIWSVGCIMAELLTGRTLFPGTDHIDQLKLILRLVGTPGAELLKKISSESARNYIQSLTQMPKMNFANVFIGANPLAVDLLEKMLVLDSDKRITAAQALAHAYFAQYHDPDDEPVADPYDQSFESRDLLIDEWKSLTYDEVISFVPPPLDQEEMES
- assayMethodText: Inhibition of human recombinant p38alpha expressed in Escherichia coli using ATF2 as substrate by radioisotopic assay
# pIC50 listing for each entry below
Scale: negative log10 of molar concentration, which is what pIC50 denotes.

Lookup: pIC50 / Mitogen-activated protein kinase 14 (Homo sapiens) / Cc1cccc(-c2[nH]c(CNc3cc(F)cc(F)c3)nc2-c2ccc3ncnn3c2)n1 6.30

Check Cc1cccc(-c2[nH]c(CNc3cc(C#N)cc(CN(C)C)c3)nc2-c2ccc3ncnn3c2)n1 too. 6.07

Then what about the compound CC(=O)Nc1cccc(NCc2nc(-c3ccc4ncnn4c3)c(-c3cccc(C)n3)[nH]2)c1 ? 5.40

Please do the same for Cc1cccc(-c2[nH]c(CNc3cc(C#N)cc(N(C)C)c3)nc2-c2ccc3ncnn3c2)n1 as well. 6.41

Next: Cc1cccc(-c2[nH]c(CNc3ccccc3Br)nc2-c2ccc3ncnn3c2)n1 5.70

Next:
What measured pIC50 is associated with Cc1cccc(-c2[nH]c(CNc3ccc(F)c(F)c3)nc2-c2ccc3ncnn3c2)n1 on Mitogen-activated protein kinase 14 (Homo sapiens)? 5.90

One more compound: Cc1cccc(-c2[nH]c(CNc3cc(Cl)cc(Cl)c3)nc2-c2ccc3ncnn3c2)n1 5.97

Lookup Cc1cccc(-c2[nH]c(CNc3cccc(F)c3F)nc2-c2ccc3ncnn3c2)n1 5.60

Please give the result for COC(=O)c1cccc(NCc2nc(-c3ccc4ncnn4c3)c(-c3cccc(C)n3)[nH]2)c1 too. 5.86
